- tgt: T1, AAV8 (adeno-associated virus 8)
- T1 construct: also called adeno-associated virus serotype 8
- assay.details: SPR, AAV amine-coupled to CM5 chip;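 note: nanobodies flowed as analyte at seven concentrations spanning 1–100 nM over immobilized AAV (500–800 RU), kinetic constants derived by fitting the binding curves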
measurement.name: kon (M⁻¹ s⁻¹)
Entry rule: numbers only, all in M⁻¹ s⁻¹.

# query: kon of entry A4-071 (VHH) VHH: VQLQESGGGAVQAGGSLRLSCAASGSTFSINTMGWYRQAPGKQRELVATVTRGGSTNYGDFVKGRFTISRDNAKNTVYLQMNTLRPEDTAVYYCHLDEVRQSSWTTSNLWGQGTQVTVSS
83300

# query: kon of entry A4-051 (VHH) VHH: VQLQESGGGLVQPGGSLRLSCAASGSSFVINTMGWYRRAPGKQRELVAAVTRGGSTNYADSVKGRFTISRDNAKNTVYLQMNSLRPEDTAVYYCHVDEVRQSSWTTSNLWGQGTQVTVSS
5890

# query: kon of entry A4-067 (VHH) VHH: VQLQESGGGLVQTGGSLRLSCAASGRAFSLNTMGWYRQAPGKWRELVATVTRGGSTNYAGSVKGRFTISRDNTKNTVYLQMNNLRPEDTAVYYCHVDEVRESSWTTSNLWGQGTQVTVSS
3440

# query: kon of entry A4-086 (VHH) VHH: VQLQESGGGLVQPGGSLRLSCAASGSRFSLNTMGWYRQAPGKQRELVAAVTRGGNTNYADFVKGRFTISRDNAKNTVYLQMNSLRPEDTAVYYCHVDELRESSWTTSNLWGQGTQVTVSS
78900
